molecular target: AgORco+AgOR10 (Anopheles gambiae); construct: expressed in transfected cells; experiment: Fluo-4 Ca2+ imaging, HEK293 cells expressing Orco+AgOR10; type: cell-based; settings: Orco 10 + Orco; potentiator mode
Sequence (Q7QCC7 whole entry): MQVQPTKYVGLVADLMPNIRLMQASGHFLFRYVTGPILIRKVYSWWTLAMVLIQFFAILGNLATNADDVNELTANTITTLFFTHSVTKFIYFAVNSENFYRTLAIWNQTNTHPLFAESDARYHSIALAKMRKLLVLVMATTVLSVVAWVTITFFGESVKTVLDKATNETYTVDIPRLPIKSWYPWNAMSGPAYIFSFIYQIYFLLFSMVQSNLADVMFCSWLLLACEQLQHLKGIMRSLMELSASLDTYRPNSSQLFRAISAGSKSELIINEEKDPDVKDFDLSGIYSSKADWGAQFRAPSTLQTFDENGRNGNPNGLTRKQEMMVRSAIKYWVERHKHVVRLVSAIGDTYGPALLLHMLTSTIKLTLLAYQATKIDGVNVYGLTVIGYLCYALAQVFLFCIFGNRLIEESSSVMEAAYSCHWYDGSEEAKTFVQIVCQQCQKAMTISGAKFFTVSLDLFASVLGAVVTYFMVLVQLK
Threshold 20%. Orco 10 + Orco Potentiator % increase below it: true (1). Orco 10 + Orco Potentiator % increase at it or above: false (0).

Study these solved cases before continuing.
1) CCn1c(SCC(=O)Nc2cc(C)ccc2C)nnc1-c1cnccn1 : false (0)
2) Cc1ccccc1-n1c(SC(C)C(N)=O)nnc1-c1cccnc1 (centres unmarked) : true (1)
3) C=CCn1c(SCc2nc(N)nc(N(C)C)n2)nnc1-c1cccnc1 : true (1)

In: Please let me know if O=C(CSc1nnc(-c2cccnc2)n1-c1ccccc1)NCc1ccc2c(c1)OCO2 shows Orco 10 + Orco Potentiator % increase below 20%.
Out: true (1)

In: Here's an entry: Clc1ccc(-n2c(SC/C=C/c3ccccc3)nnc2-c2cccnc2)cc1 . Is its Orco 10 + Orco Potentiator % increase below 20%?
Out: false (0)

In: Lab note: confirm whether the reported Orco 10 + Orco Potentiator % increase for this compound is below 20%, equality not counting. compound: O=C(CSc1nnc(-c2cccnc2)n1-c1ccccc1)c1c[nH]c2ccccc12
Out: true (1)

In: Decide: Orco 10 + Orco Potentiator % increase of CCn1c(COc2ccc3c(c2)CCCC3)nnc1SCC(=O)Nc1ccc(C(=O)OC)cc1 strictly below 20%?
Out: true (1)

In: Could you please tell me whether Orco 10 + Orco Potentiator % increase recorded for CCn1c(SCC(=O)Nc2ccc(S(=O)(=O)Nc3ccccn3)cc2)nnc1-c1ccncc1 is less than 20%?
Out: true (1)
